test system: Klebsiella pneumoniae; assay: Antibacterial activity against Carbapenem-resistant Klebsiella pneumoniae BM1 clinical isolates assessed as reduction in bacterial growth by broth microdilution method; type: functional
Bridge positions count the residues as written; N and C are the ends. Square brackets hold non-standard residues; d marks the D form. Peptide text beside a SMILES is read from it. * marks the point of attachment. X1 = CC[C@H](C)CCCCC(=O)*; Dab = NCC[C@H](N)C(=O)O
result type: MIC (µg/mL)
One number for each entry, in µg/mL.

INSERT INTO results (molecule, result_type, recorded_measurement) VALUES
  ('CC[C@H](C)CCCCC(=O)N[C@@H](CCN)C(=O)N[C@H](C(=O)N[C@@H](CCN)C(=O)N[C@H]1CCNC(=O)[C@H](C(C)N=[N+]=[N-])NC(=O)[C@H](CCN)NC(=O)[C@H](CCN)NC(=O)[C@H](CC(C)C)NC(=O)[C@@H](Cc2ccccc2)NC(=O)[C@H](CCN)NC1=O)[C@@H](C)O (stereo partly drawn)', 'MIC', 2);

Field: next molecule
I'd like to know its MIC. The molecule in question is CC[C@H](C)CCCCC(=O)N[C@@H](CCN)C(=O)N[C@H](C(=O)N[C@@H](CCN)C(=O)N[C@H]1CCNC(=O)[C@H](CC(C)C)NC(=O)[C@H](CCN)NC(=O)[C@H](CCN)NC(=O)[C@H](CC(C)C)NC(=O)[C@@H](Cc2ccccc2)NC(=O)[C@H](CCN)NC1=O)[C@@H](C)O (X1-[Dab]T[Dab][Dab][Dab][dF]L[Dab][Dab]L; lactam 4-C)
2

Source listed as ChEMBL document CHEMBL5316337.
